Would you kindly list % CT secretion inhibition vs. control for each of these compounds?
Test system: medullary thyroid carcinoma primary cultures
ASSAY TEXT: Calcitonin secretion by MTC primary cultures (IRMA)
Format: cell-based, human
COND: MTC primary culture #5 (responder), 10^−8 M, six hours
Square brackets hold non-standard residues; d marks the D form. Peptide text beside a SMILES is read from it. Tic = O=C(O)[C@@H]1Cc2ccccc2CN1; Abu = CC[C@H](N)C(=O)O
Give just the number in %; leave the unit off.

What value of % CT secretion inhibition vs. control has been recorded for this entry: C[C@@H](O)[C@H](NC(=O)[C@H](Cc1ccccc1)NC(=O)[C@@H](NC(=O)[C@H](CCCCN)NC(=O)[C@@H](Cc1c[nH]c2ccccc12)NC(=O)[C@H](Cc1c[nH]c2ccccc12)NC(=O)[C@H](Cc1ccccc1)NC(=O)[C@H](N)Cc1ccccc1)[C@@H](C)O)C(N)=O [Cmpd #3, D-Phe-Phe-Trp-D-Trp-Lys-Thr-Phe-Thr-NH2]
−17.5

What value of % CT secretion inhibition vs. control has been recorded for this entry: CC(C)[C@@H]1NC(=O)[C@H](CCCCN)NC(=O)[C@@H](Cc2c[nH]c3ccccc23)NC(=O)[C@H](Cc2ccc(O)cc2)NC(=O)[C@@H](NC(=O)[C@H](N)Cc2ccc3ccccc3c2)CSSC[C@@H](C(=O)N[C@H](C(N)=O)[C@@H](C)O)NC1=O [lanreotide, reference compound]
−19.0

What value of % CT secretion inhibition vs. control has been recorded for this entry: CC[C@@H]1NC(=O)[C@H](CCCCN)NC(=O)[C@@H](Cc2c[nH]c3ccccc23)NC(=O)[C@H](Cc2ccc(O)cc2)NC(=O)[C@@H]2Cc3ccccc3CN2C(=O)[C@H](Cc2ccccc2)NC1=O [Cmpd #2, c[Tic-Tyr-D-Trp-Lys-Abu-Phe]] (cyclo([Tic]Y[dW]K[Abu]F))
−8.6

What value of % CT secretion inhibition vs. control has been recorded for this entry: CC(C)[C@@H]1NC(=O)[C@H](CCCCN)NC(=O)[C@@H](Cc2c[nH]c3ccccc23)NC(=O)[C@H](Cc2ccc(O)c(I)c2)NC(=O)[C@@H](NC(=O)[C@H](N)Cc2ccccc2)CSSC[C@@H](C(=O)N[C@H](C(N)=O)[C@@H](C)O)NC1=O [Cmpd #4]
−15.7
